TGT: Melanocortin receptor 5 (Mus musculus, UniProt P41149)
Sequence (P41149 whole entry): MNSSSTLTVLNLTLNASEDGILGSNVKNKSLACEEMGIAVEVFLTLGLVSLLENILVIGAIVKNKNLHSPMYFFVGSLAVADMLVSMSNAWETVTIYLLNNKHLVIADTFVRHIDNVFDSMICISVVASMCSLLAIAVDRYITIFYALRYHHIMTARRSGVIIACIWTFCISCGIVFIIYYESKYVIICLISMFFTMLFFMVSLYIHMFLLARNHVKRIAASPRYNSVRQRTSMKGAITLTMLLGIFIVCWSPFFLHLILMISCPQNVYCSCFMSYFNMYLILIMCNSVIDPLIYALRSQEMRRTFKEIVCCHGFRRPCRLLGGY
ASSAY NOTES: In vitro activation of mouse recombinant Melanocortin-5 receptor.
Where a SMILES comes first, the peptide text is derived from it. [ ]: non-standard residue; d: D form. Tic = O=C(O)[C@@H]1Cc2ccccc2CN1; 2Thi = N[C@@H](Cc1cccs1)C(=O)O
EXPERIMENTAL ENDPOINT: EC50 (nM)

These solved cases illustrate the format of a correct answer.
CC(=O)N[C@H](Cc1c[nH]c2ccccc12)C(=O)N[C@H](Cc1ccccc1)C(=O)N[C@@H](CCCNC(=N)N)C(=O)N[C@@H](Cc1c[nH]c2ccccc12)C(N)=O	1260
CC(=O)N1Cc2ccccc2C[C@H]1C(=O)N[C@H](Cc1ccccc1)C(=O)N[C@@H](CCCNC(=N)N)C(=O)N[C@@H](Cc1c[nH]c2ccccc12)C(N)=O (Ac-[Tic][dF]RW-NH2)	369
CC(=O)N[C@@H](C)C(=O)N[C@H](Cc1ccccc1)C(=O)N[C@@H](CCCN=C(N)N)C(=O)N[C@@H](Cc1c[nH]c2ccccc12)C(N)=O	300
CC(=O)N[C@@H](Cc1csc2ccccc12)C(=O)N[C@H](Cc1ccccc1)C(=O)N[C@@H](CCCN=C(N)N)C(=O)N[C@@H](Cc1c[nH]c2ccccc12)C(N)=O	381
CC(=O)N[C@@H](Cc1cccnc1)C(=O)N[C@H](Cc1ccccc1)C(=O)N[C@@H](CCCN=C(N)N)C(=O)N[C@@H](Cc1c[nH]c2ccccc12)C(N)=O	400

P: CC(=O)N[C@@H](Cc1cccs1)C(=O)N[C@H](Cc1ccccc1)C(=O)N[C@@H](CCCNC(=N)N)C(=O)N[C@@H](Cc1c[nH]c2ccccc12)C(N)=O (Ac-[2Thi][dF]RW-NH2)
Q: CC(=O)N1CCC[C@H]1C(=O)N[C@H](Cc1ccccc1)C(=O)N[C@@H](CCCN=C(N)N)C(=O)N[C@@H](Cc1c[nH]c2ccccc12)C(N)=O (Ac-P[dF]RW-NH2)
*Q* Please tell me which of the two, P or Q , has the higher reported EC50 value. Bench note: the answer is the label of the chosen record.
*A* Q
(Q: 684 nM, P: 40.5 nM)
